# Test system: SNB-75 CNS
# ASSAY: NCI tumour cell line growth inhibition, 48 h
Where a SMILES comes first, the peptide text is derived from it. Bridges are numbered along the chain shown (N, C = ends). [ ]: non-standard residue; d: D form. The star is where a group is joined. Cya = N[CH](CS(=O)(=O)O)C(=O)O; X49 = CC(C)CCCCCCCC(O)CC(=O)*; GABA = NCCCC(=O)O
MEASUREMENT KIND: TGI

Examples from the recorded data:
>  <MOLECULE>
Cc1ccc2c(c1)c(C1=C(c3cn(C)c4ccccc34)C(=O)NC1=O)cn2C

>  <STUDY TARGET>
SNB-75 CNS

>  <TGI>
> 17.8 µM

$$$$
>  <MOLECULE>
Cc1ccc(C2(C)CC/C(=N/N=C3/CCC(C)(c4ccc(C)c(C)c4)c4cc(C)c(C)cc43)c3cc(C)c(C)cc32)cc1C (stereo unspecified)

>  <STUDY TARGET>
SNB-75 CNS

>  <TGI>
> 100 µM

$$$$
>  <MOLECULE>
CCOC(=O)NN(C(=O)OCC)C(=C(c1ccccc1)N1CCOCC1)N(NC(=O)OCC)C(=O)OCC

>  <STUDY TARGET>
SNB-75 CNS

>  <TGI>
> 100 µM

$$$$
>  <MOLECULE>
N#CC(C#N)=C(C(C#N)C#N)C(C#N)C#N

>  <STUDY TARGET>
SNB-75 CNS

>  <TGI>
> 100 µM

$$$$
>  <MOLECULE>
COc1cc(/C=C2/SC(c3ccccc3)N(c3cc(Cl)ccc3Cl)C2=O)cc(OC)c1OC (stereo unspecified)

>  <STUDY TARGET>
SNB-75 CNS

>  <TGI>
> 100 µM

$$$$

Please fill in: TGI reported for CC(C)CCCCCCCC(O)CC(=O)NC(CS(=O)(=O)O)C(=O)NC(CC(C)C)C(=O)NCCCC(=O)NC(Cc1cnc[nH]1)C(=O)NC(C)C(=O)NC1C(=O)NC(C(C)O)C(=O)NC(Cc2cnc[nH]2)C(=O)NC(C)C(=O)NC(C(C)O)C(=O)OC1C (stereo unspecified) (X49-[Cya]L[GABA]HATTHAT; ester 6-C; configuration not given here) = > 25 µM
